test system: biotinyl-Leu-oxazolone; experiment: self-aminoacylation, catalytic enhancement (BLO) (fold over background); higher = more active; k-Seq, kA / k0A0; sequences stand for … in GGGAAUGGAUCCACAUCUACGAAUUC…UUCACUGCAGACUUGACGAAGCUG
Fewer inactive variants are shown than the library holds.
Reported Endpoint: self-aminoacylation

>>> print(df.to_string())
                            sequence_string            study_system    reported_endpoint  test_value
0  CGACACUUCAAGCAAUCGGGC [Fam1B.1 aminoacylation ribozyme variant]  biotinyl-Leu-oxazolone  self-aminoacylation        1.85
1  CUGCUUCAAACAAUCGGUAUG [Fam1A.1 aminoacylation ribozyme variant]  biotinyl-Leu-oxazolone  self-aminoacylation         2.5
2  AUUCUCCUAGAUCAUCGGGUG [Fam2.2 aminoacylation ribozyme variant]  biotinyl-Leu-oxazolone  self-aminoacylation         5.3
3  CUACUUUAAACAAUCGGCCUG [Fam1A.1 aminoacylation ribozyme variant]  biotinyl-Leu-oxazolone  self-aminoacylation       0.974
4  CCACACUUCAAGCUAUCGGUA [Fam1B.1 aminoacylation ribozyme variant]  biotinyl-Leu-oxazolone  self-aminoacylation        1.28
5  AUUACCCUUGUCAUCGAGUGU [Fam2.1 aminoacylation ribozyme variant]  biotinyl-Leu-oxazolone  self-aminoacylation        3.08
6  AUUACCCUUGUCAUCGAGUAA [Fam2.1 aminoacylation ribozyme variant]  biotinyl-Leu-oxazolone  self-aminoacylation        1.22
7  AUUCAGCUAGAUCAUCGGGUG [Fam2.2 aminoacylation ribozyme variant]  biotinyl-Leu-oxazolone  self-aminoacylation        4.61

---

tested on: biotinyl-Ile-oxazolone; assay: self-aminoacylation, catalytic enhancement (BIO) (fold over background); higher = more active; k-Seq, kA / k0A0; sequences stand for … in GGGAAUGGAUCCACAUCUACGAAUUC…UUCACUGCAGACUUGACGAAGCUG
This sample holds only a part of the variants without activity.
# cutoff 3 applies to self-aminoacylation; >= gives TRUE, < gives FALSE

                            sequence_string            study_system  answer_label
0  AUUACCCUGGCUAUCGAGUGA [Fam2.1 aminoacylation ribozyme variant]  biotinyl-Ile-oxazolone         FALSE
1  CUACUACAAACAAUCGGUCUC [Fam1A.1 aminoacylation ribozyme variant]  biotinyl-Ile-oxazolone         FALSE
2  AUUACCCUGGUCACCAAGUGA [Fam2.1 aminoacylation ribozyme variant]  biotinyl-Ile-oxazolone          TRUE
3  AUUUCCAUGGUCAUCGAGUGA [Fam2.1 aminoacylation ribozyme variant]  biotinyl-Ile-oxazolone          TRUE
4  AUUACCUUGAUCAUCGAGUGA [Fam2.1 aminoacylation ribozyme variant]  biotinyl-Ile-oxazolone          TRUE

---

This section presents sequences with their documented self-aminoacylation values.
system: biotinyl-Trp-oxazolone; experiment: self-aminoacylation, catalytic enhancement (BWO) (fold over background); higher = more active; k-Seq, kA / k0A0; sequences stand for … in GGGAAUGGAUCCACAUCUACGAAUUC…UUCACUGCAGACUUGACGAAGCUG
Fewer inactive variants are shown than the library holds.
Reported Endpoint: self-aminoacylation

>>> df
                            sequence_string            study_system    reported_endpoint  test_value
0  AUUCACCAAGGUCAUCGGGAG [Fam2.2 aminoacylation ribozyme variant]  biotinyl-Trp-oxazolone  self-aminoacylation        1.27
1  UAUACCCUGGUCAUCGAGUGA [Fam2.1 aminoacylation ribozyme variant]  biotinyl-Trp-oxazolone  self-aminoacylation          16
2  CUACUACAAACUAUCGGUCUG [Fam1A.1 aminoacylation ribozyme variant]  biotinyl-Trp-oxazolone  self-aminoacylation       0.717
3  AAGUUUGCAAAUAGUCGCAAG [Fam3.1 aminoacylation ribozyme variant]  biotinyl-Trp-oxazolone  self-aminoacylation       0.789
4  AAGGUUGCUAAUAGUCGCUAG [Fam3.1 aminoacylation ribozyme variant]  biotinyl-Trp-oxazolone  self-aminoacylation        1.27

Where these numbers come from: the supplement of paper PMC9233669
